Data origin, for the record: PubChem BioAssay (NCATS)

# System: CP329
# test_name: qHTS profiling for inhibitors of Plasmodium falciparum proliferation (AID 504749); further: nearly all actives have a fitted effect of over 60% in size
# measurement_conditions: P. falciparum in erythrocytes, SYBR Green DNA, 72 h; series mostly up to 28.7 µM
Records with an inconclusive call do not appear. Calls of active or inactive are those of the source. The call rests on the fitted dose curve; in most records, active means well fitted inhibition curve with a large enough effect; inconclusive means small, poorly fitted or top-dose-only effect; inactive means flat fitted curve, though single readings scatter.
Valid outcomes are listed here; reply with one: active, inactive

q: Each compound tested received a call. Report the one for `CN(C)C(=O)Oc1cc(OC(=O)N(C)C)cc([C@@H](O)CNC(C)(C)C)c1` .
a: inactive

q: Each compound tested received a call. Report the one for CC(=O)OC1C[C@H](O[C@@H]2C(O)C[C@H](O[C@@H]3C(O)C[C@@H](OC4CC[C@]5(C)C(CCC6C5CC(O)[C@@]5(C)C(C7=CC(=O)OC7)CC[C@@]65O)C4)OC3C)OC2C)O[C@H](C)[C@H]1O[C@H]1OC(CO)C(O)C(O)C1O (stereo partly specified) .
a: inactive

q: Each compound tested received a call. Report the one for `COc1ccc2c(c1OC)CN1CCc3cc4c(cc3[C@H]1C2)OCO4` .
a: active

Others:
q: Each compound tested received a call. Report the one for `CC(C)c1c(CN(C)[C@@H](C)Cc2ccccc2)n(C)n(-c2ccccc2)c1=O` .
a: inactive

q: Each compound tested received a call. Report the one for `C[C@H](NC(C)(C)C)C(=O)c1cccc(Cl)c1` .
a: inactive

q: Each compound tested received a call. Report the one for `CNC[C@H](O)c1ccc(O)cc1` .
a: inactive
